# target_or_test_system: ITPKb (Mus musculus, UniProt B2RXC2)
# Construct: murine ITPKb residues 640-942; MGSDKIHHHHHH (His6 tag from MH4 plasmid) (N); made in house; host or cells: Escherichia coli HK100
# Sequence (B2RXC2 640-942): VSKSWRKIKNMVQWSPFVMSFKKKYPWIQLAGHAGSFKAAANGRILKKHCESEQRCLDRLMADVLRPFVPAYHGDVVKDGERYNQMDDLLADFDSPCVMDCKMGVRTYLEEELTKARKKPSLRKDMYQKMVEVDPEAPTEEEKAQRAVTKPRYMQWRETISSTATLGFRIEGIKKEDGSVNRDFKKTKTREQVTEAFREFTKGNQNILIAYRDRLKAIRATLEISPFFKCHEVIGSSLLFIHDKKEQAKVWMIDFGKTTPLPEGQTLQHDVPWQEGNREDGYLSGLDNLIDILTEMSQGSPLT
# assay_protocol: Biochemical measurement of ITPKb activity (Kinase-Glo ATP depletion assay); inhibiting the phosphorylation of IP3 to IP4
# Set-up: species or system murine
# condition_label: Table 1; inhibiting the phosphorylation of IP3 to IP4; read-out: IC50
Mark true (1) only for IC50 values smaller than 80 nM; exact matches and larger values are false (0).

compound	class
COC(=O)c1ccc(-c2n[nH]cc2CN2CCN(c3ccc(C(F)(F)F)cn3)[C@H](C)C2)o1 [Example 37]	false (0)
C[C@@H]1CN(Cc2c[nH]nc2-c2cc(C(=O)N(C)C)c[nH]2)CCN1c1ccc(C(F)(F)F)cn1 [Example 41]	false (0)
C[C@@H]1CN(Cc2c[nH]nc2-c2ccc(C(N)=O)o2)CCN1c1ccc(C(F)(F)F)cn1 [Example 39]	true (1)
Cc1cc(NC(=O)c2n[nH]cc2CN2CCN(c3ccc(C(F)(F)F)cn3)[C@H](C)C2)n(CCN(C)C)n1 [Example 32]	false (0)
C[C@@H]1CN(Cc2c[nH]nc2C(=O)N2CCC(O)CC2)CCN1c1ccc(C(F)(F)F)cn1 [Example 36]	false (0)
C[C@@H]1CN(Cc2c[nH]nc2-c2nc3cc(C#N)ccc3[nH]2)CCN1c1ccc(C(F)(F)F)cn1 [Example 28]	false (0)
C[C@@H]1CN(Cc2c[nH]nc2-c2c[nH]c3ncccc23)CCN1c1ccc(C(F)(F)F)cn1 [Example 44]	false (0)
C[C@@H]1CN(Cc2c[nH]nc2-c2cc(C(=O)NCCO)c[nH]2)CCN1c1ccc(C(F)(F)F)cn1 [Example 42]	true (1)
C[C@@H]1CN(Cc2c[nH]nc2C(=O)Nc2nc[nH]c2C#N)CCN1c1ccc(C(F)(F)F)cn1 [Example 30]	false (0)
C[C@@H]1CN(Cc2c[nH]nc2-c2nc3c([nH]2)CCCC3)CCN1c1ccc(C(F)(F)F)cn1 [Example 26]	false (0)
C[C@@H]1CN(Cc2c[nH]nc2C(=O)N2CCC(O)C2)CCN1c1ccc(C(F)(F)F)cn1 (some centres unmarked) [Example 35]	false (0)
CC(=O)N1CC=C(c2n[nH]cc2CN2CCN(c3ccc(C(F)(F)F)cn3)[C@H](C)C2)CC1 [Example 47]	true (1)
C[C@@H]1CN(Cc2c[nH]nc2/C=C2\NC(=N)NC2=O)CCN1c1ccc(C(F)(F)F)cn1 [Example 50]	false (0)
C[C@@H]1CN(Cc2c[nH]nc2C(=O)Nc2n[nH]cc2C#N)CCN1c1ccc(C(F)(F)F)cn1 [Example 33]	false (0)
C[C@@H]1CN(Cc2c[nH]nc2-c2ccc(C(=O)O)o2)CCN1c1ccc(C(F)(F)F)cn1 [Example 38]	false (0)
C[C@@H]1CN(Cc2c[nH]nc2C(=O)Nc2cc(-c3ccco3)n[nH]2)CCN1c1ccc(C(F)(F)F)cn1 [Example 31]	false (0)
